Consider the following molecules; for each one, report its Stabilty.
- assay-explanation: Metabolic stability in human liver microsomes assessed as compound remaining; note: time not given here
- Format: ADME, Microsome
Provide only the numeric value, understood in %.

Request: Give its Stabilty value. Item: `Nc1nc(OCc2ccccc2)c2[nH]nnc2n1`
Response: 93

Request: Give its Stabilty value. Item: `Nc1cc(Cc2ccccc2)c2nn[nH]c2n1`
Response: 98

Request: Give its Stabilty value. Item: `Nc1cc([C@H](CCNCc2ccccc2C(F)(F)F)c2ccccc2)c2nn[nH]c2n1`
Response: 2

Request: Give its Stabilty value. Item: `Nc1cc([C@H](CCN[C@H]2CC[C@H](c3ccccc3)CC2)c2ccccc2)c2nn[nH]c2n1`
Response: 80
